Assay: Trial 000015 Part 3: pharmacokinetics, single intranasal and single intravenous cross-over
Conditions: female, human, plasma, other: intranasal, 400 μg, F Median, 400 μg i.n. vs 20 μg i.v., N = 6
*1 amine or outer side, *2 acyl side, *3 side chain or, on linkers, in order; H or OH if unused. Where a SMILES comes first, the peptide text is derived from it. Bridges are numbered along the chain shown (N, C = ends). [ ]: non-standard residue; d: D form. N(4-F-Bzl)Gly = O=C(O)CNCc1ccc(F)cc1; X1 = O=C(CCC[*:2])[*:1]
test_readout: bioavailability (%)
Give bare numbers, in %.

Looking up CC[C@H](C)[C@@H]1NC(=O)[C@H](Cc2ccc(O)cc2)NC(=O)CCCSC[C@@H](C(=O)N(CC(=O)N[C@@H](CC(C)C)C(=O)NCC(N)=O)Cc2ccc(F)cc2)NC(=O)[C@H](CC(N)=O)NC(=O)[C@H](CCC(N)=O)NC1=O [merotocin] (YIQNC[N(4-F-Bzl)Gly]LG-NH2; linker N-5 via X1) , I see its bioavailability listed as 3.4
